# methodSummary: inhibitors of fungal efflux pumps CDR1, CDR2, MDR1, pilot screen, validation compound set, multiplex, phenotypic (AID 588506);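 further: Nile Red retained in cells so higher fluorescence means more efflux inhibition; 0 = negative control wells and 1 = enniatin B 25 µM full block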
# appliedConditions: S. cerevisiae pump-expressing triplex, Nile Red efflux flow cytometry; at 10 µM; stronger effect = higher value; the pumps come from Candida albicans
property: efflux inhibition (fraction of control)
Keep it simple and answer with nothing but the number.

Illustrative cases are given below, each with its answer.
> print(dat)
                             chemicalsmiles  recordedresult
1  COc1ccc(Cl)cc1C(=O)NCCc1ccc(S(=O)(=O)NC(=O)NC2CCCCC2)cc1           -0.28
2        Cc1ccsc1/C=N\NC(=O)c1ccc2c(c1)OCO2           -0.12
3                 Nc1ccc(N=Nc2ccccc2)c(N)n1           -0.26
4                 O=C(O)/C=C/c1ccc(O)c(O)c1            0.18
5  COc1ccc(-c2onc(C)c2-c2ccc(C(=O)OC(C)C)o2)c(O)c1           -0.02

IN: Looking for the measured efflux inhibition (fraction of control) of `COc1ccc2cc(-c3nc4ccccc4n3C)c(=O)oc2c1` , can you help?
OUT: -0.2

###

# GFP response relative to DMSO per entry
# methodSummary: LAP4-GFP expression modulators in yeast, confirmation, cell-based, cherry picks, flow cytometry, mother/daughter gates (AID 2271);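 further: ratio of sample to DMSO plate mean so 100% equals DMSO level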
# appliedConditions: S. cerevisiae LAP4-GFP strain, 3 h, measured here: mother cell gate response, at 10 µM, stronger effect = higher value, 100 means same as DMSO control
// units = %; emit number, no label

# count of solved cases: 3
> print(dat)
                                   molecule  measureunit  recordedresult
1       O=S1(=O)Nc2c(ccc3cccnc23)-c2ccccc21            %             163
2  Cc1ccn2c(NC3CCCCC3)c(-c3cccc(-c4cccc(Cl)c4)c3)nc2c1            %             112
3  CCCCNC(=O)c1ccc2c(SCC(=O)O)c3c(nc2c1)CCCC3            %            97.5

IN: Which GFP response relative to DMSO value is on record for `CCN(CC(=O)NC(C)(C)C)C(=O)COc1c(Cl)cc(Cl)c2ccc(C)nc12` ?
OUT: 125

IN: Same read-out for `CNc1nc(-c2ccccc2)cc(C(F)(F)F)c1C#N` ?
OUT: 93.1

IN: Queued: Cc1ccc(N2C(=O)CC(Sc3ncn[nH]3)C2=O)cc1C (stereo not drawn)
OUT: 140

IN: Repeat for the following molecule: `Cc1cccn2c(=O)c(/C=C(\C#N)C(=O)NCc3ccccc3)c(N3CCC(C(N)=O)CC3)nc12`
OUT: 101

IN: Now consider `O=C(Cn1cc(/C=C\[N+](=O)[O-])c2ccccc21)Nc1ccccc1` .
OUT: 94

IN: Try this molecule next: `N#Cc1ccc(Sc2ccccn2)c([N+](=O)[O-])c1`
OUT: 103

IN: Continue with CS(=O)(=O)N1N=C(c2ccc3nccnc3c2)CC1c1ccccc1 (stereo not drawn)
OUT: 99.5

IN: Subsequent entry: `Cc1cccn2c(=O)c(/C=C(\C#N)C(=O)NCc3ccco3)c(N3CCCCCC3)nc12`
OUT: 98.3

###

# methodSummary: inhibitors of CD8+ T cell-vesicle binding, pilot screen, LFA-1/ICAM-1 modulator project, MLPCN validation set, flow cytometry (AID 2523)
# appliedConditions: 2C mouse CD8+ T cells, at 7 µM, stronger effect = lower value; measured here: CD8+/vesicle+ event percentage
property: double positive events

Illustrative cases are given below, each with its answer.
compound	double positive events
C=C(C)c1nc2cc(OC)c(OC)cc2c(=O)o1	66.2%
COc1ccc(NC(=O)C2CSC3c4ccccc4C(=O)N23)cc1 (stereo not given)	77.8%
CC(=O)O[C@H]1C(=O)[C@@]2(C)[C@H]([C@H](OC(=O)c3ccccc3)[C@]3(O)C[C@H](OC(=O)[C@H](O)C(NC(=O)c4ccccc4)c4ccccc4)C(C)=C1C3(C)C)[C@]1(OC(C)=O)CO[C@@H]1C[C@@H]2O (stereo not given in full)	55.6%
COc1ccc(N2C(=O)C3CCCN3C2=O)cc1 (stereo not given)	61.6%
CNCCC=C1c2ccccc2CCc2ccccc21	49.9%

IN: Endpoint output: double positive events of `CCS(=O)(=O)Nc1cc(OC)c(OC)cc1Cc1nccc2cc(OC)c(OC)cc12` . Value?
OUT: 57.8%

IN: Can you check `Cc1nc2sccn2c(=O)c1CCN1CCC(=C(c2ccc(F)cc2)c2ccc(F)cc2)CC1` next?
OUT: 61.2%

IN: # iterate: `C[C@H]1O[C@H]1P(=O)(O)O`
OUT: 66.2%

IN: Follow-up entry: COc1cccc(C2CCCN2Cc2nc(CCC(C)C)no2)c1 (stereo not given)
OUT: 54.6%

IN: Would you mind doing `CCOC(=O)c1ccc2[nH]c(C)c(CCC(C)=O)c(=O)c2c1` as well?
OUT: 57.1%

###

# methodSummary: inhibitors of CD8+ T cell-vesicle binding, pilot screen, LFA-1/ICAM-1 modulator project, MLPCN validation set, flow cytometry (AID 2523);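 on vesicle binding response: mean PE anti-B7-1 fluorescence of CD8+ cells relative to row control; 100% = QL9-loaded vesicles with DMSO vehicle in the same plate row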
# appliedConditions: 2C mouse CD8+ T cells, at 7 µM, stronger effect = lower value
The source made the active and inactive calls.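 How the source made its calls: active means response below a set limit, under 55% cells CD8-positive and vesicle-bound, and CD8 cells' 90th-percentile brightness under 279; inactive means the rest.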
Measured vesicle binding response, listed per entry for reference.

Known results for compounds:
> print(dat)
                                   compound                  property   recordedresult
1  CCOc1ccc(C(=O)Nc2ccc(N3CCN(C(C)=O)CC3)cc2)cc1[N+](=O)[O-]  vesicle binding response  210% (inactive)
2              CC(=O)N=c1sc(S(N)(=O)=O)nn1C  vesicle binding response  166% (inactive)

IN: Give the measured vesicle binding response of `CCCCC/C=C\C[C@H](O)/C=C/c1cccc(C[C@H](O)CCCCO)n1` .
OUT: 41.1% (active)

###

# methodSummary: RPL19A-GFP modulators, yeast TOR pathway, confirmation, cell-based, S. cerevisiae, flow cytometry, cherry picks, mother/daughter gates (AID 2270)
# appliedConditions: S. cerevisiae RPL19A-GFP strain, 3 h, at 10 µM, stronger effect = lower value, 100 = same GFP as DMSO wells
Measured GFP response vs DMSO, listed per entry.
Field: numeric (%). Do not append units.

Below, 3 compounds whose answers are already recorded.
> print(dat)
                                   compound  recordedresult
1   Cc1nc2ccc(Br)cn2c1C(=O)N/N=C\c1ccccc1Cl            95.4
2  CC1=NNC(=O)/C1=C\c1cn(-c2ccccc2)nc1-c1ccccc1              98
3    Cc1ccc(/C=C/C(=O)c2ccccc(=O)c2O)c(C)c1            90.2

For the next question, use this compound.
IN: Dear colleague, I am looking for the recorded GFP response vs DMSO of the following compound: `O=C(NC(=S)NNC(=O)c1ccc(Cl)cc1Cl)c1cccnc1`
OUT: 102

###

# methodSummary: superoxide lowering in aged yeast cells, pilot screen, validation compound set (AID 2706);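 further: yeast exposed to compound for one week at 30 degrees C before staining; 100% = mean of all compound wells on the same plate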
# appliedConditions: S. cerevisiae aging, superoxide DHE fluorescence; at 10 µM, stronger effect = lower value
property: superoxide response (% of plate) (%)
Use % as the unit, but write only the number.

Examples with answers:
> print(dat)
                                   compound                          property  recordedresult
1  CN(C)C(=O)C12CCC(C)(c3nc4ccccc4nc31)C2(C)C (configuration not stated)  superoxide response (% of plate)            95.4
2  CC(=O)C1=C(NC(=O)c2ccc(C(F)(F)F)cc2)C[C@@H]2[C@H]1C2(C)C  superoxide response (% of plate)              99
3  CSc1ccc2c(c1)N(CCC1CCCCN1C)c1ccccc1S2 (configuration not stated)  superoxide response (% of plate)            88.6

IN: What value of measured superoxide response (% of plate) is listed for `c1cc2c(cc1C1CCCCC1)c1c3n2CCN=C3CCC1` ?
OUT: 98.8

IN: Moving on to the next compound: OC(COCc1ccccc1)CN1CCN(Cc2ccc3c(c2)OCO3)CC1 (configuration not stated)
OUT: 110

IN: And then `CN(C)CCCN1c2ccccc2CCc2ccc(Cl)cc21` , what is it?
OUT: 97.5

IN: Try `CCOC(=O)c1oc2cc(OCC(N)=O)ccc2c(=O)c1-c1ccc(OC)c(OC)c1` next.
OUT: 90.1

IN: And the next one, COc1ccc(CCNC(=O)CC(c2ccccc2)c2cccc(C)c2O)cc1OC (configuration not stated) ?
OUT: 96.3

IN: What do you get for `O=C(O)C[C@@H](O)C(=O)O` ?
OUT: 104

IN: Input O=C(c1ccc([N+](=O)[O-])cc1)N1CCSC1c1ccccc1Cl (configuration not stated)
OUT: 91

IN: Repeat for the following compound: COc1cc(C2CC(=O)NC3=C2C(=O)CC(C)(C)C3)ccc1O (configuration not stated)
OUT: 98.7

IN: // query: COc1ccccc1C(CC(=O)Nc1ccccc1C)c1ccc(OC(C)C)cc1 (configuration not stated)
OUT: 92.7

IN: Try the compound `CC(=O)OCC(=O)[C@@]1(OC(C)=O)[C@@H](C)C[C@H]2[C@@H]3C[C@H](F)C4=CC(=O)C=C[C@]4(C)[C@@]3(F)[C@@H](O)C[C@@]21C`
OUT: 97.6

IN: Same for `Cn1c(=O)[nH]c(=O)c2c1nc(Br)n2CCCO`
OUT: 90.2
